# Test system: Italian ryegrass
# assay_remarks: Test F preemergence test
# Type: in vivo, Lolium multiflorum
# test_conditions: 125 g ai/ha, preemergence, scale 0 to 100
Item-by-item account of Ryegrass, Italian plant response rating
quantity_kind: Ryegrass, Italian plant response rating

{"compound": "Cc1cc[n+]([O-])c([S+]([O-])Cc2c(C(F)(F)F)nn(C)c2OCC(F)(F)F)c1 (racemic) [Compound 30]", "recorded_measurement": 95}
{"compound": "Cn1nc(C(F)(F)F)c(CS(=O)(=O)c2cccc[n+]2[O-])c1OCC(F)(F)F [Compound 29]", "recorded_measurement": 100}
{"compound": "CC(c1c(C(F)(F)F)nn(C)c1OCC(F)(F)F)S(=O)(=O)c1cccc[n+]1[O-] (racemic) [Compound 33]", "recorded_measurement": 100}
{"compound": "Cc1cc[n+]([O-])c(S(=O)(=O)C(Cl)c2c(C(F)(F)F)nn(C)c2Cl)c1 (racemic) [Compound 22]", "recorded_measurement": 70}
{"compound": "Cn1nc(C(F)(F)F)c(C[S+]([O-])c2ccc(Cl)c[n+]2[O-])c1OCC(F)F (centres unmarked) [Compound 85]", "recorded_measurement": 100}
{"compound": "CCn1nc(C(F)(F)F)c(CS(=O)(=O)c2cccc[n+]2[O-])c1OCC(F)(F)F [Compound 63]", "recorded_measurement": 100}
{"compound": "Cc1cc[n+]([O-])c(S(=O)(=O)Cc2c(C(F)(F)F)nn(C)c2OCC(F)(F)F)c1 [Compound 31]", "recorded_measurement": 90}
{"compound": "Cn1nc(C(F)(F)F)c(C[S+]([O-])c2ccc(F)c[n+]2[O-])c1OC(F)F (centres unmarked) [Compound 58]", "recorded_measurement": 100}

###

Item-by-item account of Blackgrass plant response rating
# Tested on: blackgrass
# assay_remarks: Test C pre-/postemergence test
# Format: in vivo, Alopecurus myosuroides
# test_conditions: preemergence, 250 g ai/ha; scale 0 (no effect) to 100 (complete control)
# Excerpt: Seeds of plant species selected from blackgrass (Alopecurus myosuroides), downy brome (Bromus tectorum), green foxtail (Setaria viridis), Italian ryegrass (Lolium multiflorum), wheat (Triticum aestivum), wild oat (Avena fatua), catchweed bedstraw (Galium aparine), Russian thistle (Salsola kali), […] […]
quantity_kind: Blackgrass plant response rating

{"compound": "Cn1nc(C(F)(F)F)c(C[S+]([O-])c2ccc(F)c[n+]2[O-])c1OCC(F)(F)F (stereo not drawn)", "recorded_measurement": 100}
{"compound": "CCn1nc(C(F)(F)F)c(CS(=O)(=O)c2cc(C)cc[n+]2[O-])c1OCC(F)(F)F", "recorded_measurement": 100}
{"compound": "[O-][n+]1cc(Cl)ccc1[S+]([O-])Cc1c(C(F)(F)F)nn(CC(F)(F)F)c1Cl (stereo not drawn)", "recorded_measurement": 100}

###

Item-by-item account of Horseweed plant response rating
# System: Canada horseweed
# assay_remarks: Test F preemergence test
# Format: in vivo, Conyza canadensis
# test_conditions: 125 g ai/ha, preemergence, scale 0 to 100

{"molecule": "Cn1nc(C(F)(F)F)c(C[S+]([O-])c2ccc(F)c[n+]2[O-])c1OCC(F)(F)F (stereo not shown)", "Horseweed plant response rating": 100}
{"molecule": "Cn1nc(C(F)(F)F)c(C[S+]([O-])c2ccc(Cl)c[n+]2[O-])c1OCC(F)F (stereo not shown)", "Horseweed plant response rating": 100}
{"molecule": "Cc1cc[n+]([O-])c([S+]([O-])Cc2c(C(F)(F)F)nn(C)c2OCC(F)(F)F)c1 (racemic)", "Horseweed plant response rating": 100}
{"molecule": "Cc1cc[n+]([O-])c(S(=O)(=O)Cc2c(C(F)(F)F)nn(C)c2Cl)c1", "Horseweed plant response rating": 100}

Reference source: patent US20100298141A1
